Test system: FLAP (5-lipoxygenase activating protein)
Assay: In vitro binding test: displacement of [3H]-7-chloro-3-(5-((3-fluoropyridin-2-yl)methoxy)-2-methylphenyl)-3,4-dihydroquinazolin-2(1H)-one from Sf9 microsome fractions
Parameters: species or system human and mouse
Settings: Sf9 microsome fractions expressing FLAP; 100% = radioligand binding with 10 μM sodium 3-(3-(tert-butylsulfanyl)-1-(4-chlorobenzyl)-5-isopropyl-1H-indol-2-yl)-2,2-dimethylpropanoate, 0% = DMSO; test compound concentration not given
I'd appreciate it if you could supply inhibitory rate (%) values for the items below.
Please reply with the bare figure in % and do not write the unit itself.

## Task # inhibitory rate (%) lookup, item Cc1ccc(OCc2ncccc2F)cc1-n1c(=O)[nH]c2cc(NS(=O)(=O)C3CC3)ccc2c1=O
## Result 110

## Task Reported inhibitory rate (%), compound COc1ncc(C(F)(F)F)c2c1NC(=O)N(c1cc3c(cc1C)CCC(c1ncccc1F)O3)C2 (stereo not shown) : ____
## Result 93

## Task Returns the measured inhibitory rate (%) for the input compound. Input: O=C1Nc2ccnc(N3CCOCC3)c2CN1c1cc2c(cc1Cl)CCC(c1ncccc1F)O2 (stereo not shown)
## Result 117

## Task Please look up its inhibitory rate (%): Cc1cc2c(cc1N1Cc3c(cc(N4CCCC4=O)nc3C3CC3)NC1=O)OC(c1ncccc1F)CC2 (stereo not shown)
## Result 92

## Task Requested read-out: inhibitory rate (%). Entry: COC(=O)c1ccc2c(c1)NC(=O)N(c1cc(OCc3ncccc3F)ccc1C)C2
## Result 104

## Task Item under review: O=C1Nc2c(C3=CCOCC3)ncc(Cl)c2CN1c1cc2c(cc1Cl)CCC(c1ncccc1F)O2 (stereo not shown) . Reported inhibitory rate (%)?
## Result 98

## Task Recorded inhibitory rate (%) of Cc1cc2c(cc1N1Cc3c(Cl)cnc(-c4ccoc4)c3NC1=O)OC(c1ncccc1F)CC2 (stereo not shown) , please.
## Result 102

## Task Entry Cc1cc2c(cc1N1Cc3c(ccnc3C(F)(F)F)NC1=O)O[C@H](c1ncccc1F)CC2 has what inhibitory rate (%)?
## Result 98

## Task Can you look up the measured inhibitory rate (%) of Cc1ccc(OCc2c(F)cccc2F)cc1N1Cc2ccc(C3=NC(C)(C)C(=O)O3)cc2NC1=O for me?
## Result 96

## Task Return reported inhibitory rate (%); argument: O=C1Nc2cc(N3CCOCC3)nc(C3CC3)c2CN1c1cc2c(cc1Cl)CCC(c1ncccc1F)O2 (stereo not shown)
## Result 107

## Task Which inhibitory rate (%) is reported for this compound? O=C1Nc2c(Cl)cnc(Cl)c2CN1c1cc2c(cc1Cl)CCC(c1ncccc1F)O2 (stereo not shown)
## Result 103

## Task Need inhibitory rate (%) of Cc1cc2c(cc1N1Cc3c(Cl)cnc(C)c3NC1=O)OC(c1ncccc1F)CC2 (stereo not shown) , thanks.
## Result 114

## Task Would you mind telling me what inhibitory rate (%) value was observed for CCOc1ncc(Cl)c2c1NC(=O)N(c1cc3c(cc1C)CCC(c1ncccc1F)O3)C2 (stereo not shown) ?
## Result 90

## Task What does the record list as inhibitory rate (%) for CCOC(=O)c1nccc2c1CN(c1cc3c(cc1C)CCC(c1ncccc1F)O3)C(=O)N2 (stereo not shown) ?
## Result 105

## Task # query: inhibitory rate (%) of entry O=C1Nc2ccccc2CN1c1cc(OCc2ncccc2F)ccc1C(F)(F)F
## Result 110

## Task Dear colleague, I am looking for the recorded inhibitory rate (%) of the following compound: COc1ncc(Cl)c2c1NC(=O)N(c1cc3c(cc1C)CCC(c1ncccc1F)O3)C2 (stereo not shown)
## Result 95
